measured_metric: melting point

[
  {
    "compound_structure_string": "O=[N+]([O-])c1ccc(S(=O)(=O)Oc2ccccc2)cc1",
    "result": "114 to 116 °C"
  },
  {
    "compound_structure_string": "O=CC(C=O)c1ccncn1",
    "result": "227 to 232 °C"
  },
  {
    "compound_structure_string": "O=C(O)c1cc2cc(Br)ccc2s1",
    "result": "233 to 234 °C"
  }
]

---

[
  {
    "compound": "O=C1C=C2C=C[C@@H]3C[C@@]2(O1)[C@H]1CCCCN31",
    "melting point": "142 °C"
  },
  {
    "compound": "CCCCC(CC)COC(=O)c1ccc(C(=O)OCC(CC)CCCC)cc1 (stereo not given)",
    "melting point": "30 to 34 °C"
  },
  {
    "compound": "NNC(=O)c1csc(-c2cccc(Cl)c2Cl)n1",
    "melting point": "230 to 233 °C"
  },
  {
    "compound": "NC(=S)c1ncc(C(F)(F)F)cc1Cl",
    "melting point": "135 to 136 °C"
  },
  {
    "compound": "NC(=S)Nc1ccccn1",
    "melting point": "148 to 150 °C"
  },
  {
    "compound": "COC(=O)c1ccc(OC)c(C#N)c1",
    "melting point": "124 to 125 °C"
  },
  {
    "compound": "O=C(NC(=O)c1ccccc1Cl)Nc1ccc(OC(F)(F)F)cc1",
    "melting point": "195 °C"
  },
  {
    "compound": "O=C(O)C(c1ccccc1)C1CCCC1 (stereo not given)",
    "melting point": "96 to 100 °C"
  },
  {
    "compound": "O=C(O)c1cc(I)ccc1Cl",
    "melting point": "161 to 163 °C"
  },
  {
    "compound": "CNCc1ccccc1Cn1cncn1",
    "melting point": "57 to 59 °C"
  },
  {
    "compound": "Cc1cccc2c1sc1c(C)cccc12",
    "melting point": "147 to 153 °C"
  },
  {
    "compound": "C#CC1(O)CCC2(C)C(CCC3C4CCC(=O)C4(C)CCC32)C1 (stereo not given)",
    "melting point": "237 to 238 °C"
  },
  {
    "compound": "O=C(O)c1cc(Br)c(O)c(Br)c1",
    "melting point": "271 to 274 °C"
  },
  {
    "compound": "O=C1N[C@@H](c2ccccc2)CO1",
    "melting point": "130 to 133 °C"
  },
  {
    "compound": "N#Cc1ccc(OC(F)F)cc1",
    "melting point": "40 to 42 °C"
  }
]

---

// reported melting point per item

[
  {
    "compound_structure_string": "O=C(O)CCC(=O)Nc1ccc(S(=O)(=O)Nc2nccs2)cc1",
    "melting point": "194 °C"
  },
  {
    "compound_structure_string": "FC(F)(F)C#CC(F)(F)F",
    "melting point": "-117 °C"
  },
  {
    "compound_structure_string": "Nc1c(C=NNc2ccccc2)ccc2c1C(=O)c1ccccc1C2=O",
    "melting point": "209 to 211 °C"
  },
  {
    "compound_structure_string": "FC1=C(F)C(F)(F)C1(F)F",
    "melting point": "-60 °C"
  },
  {
    "compound_structure_string": "Cc1ccc(C(N)=NO)cc1",
    "melting point": "136 to 137 °C"
  },
  {
    "compound_structure_string": "Clc1cc2c(c(Cl)c1Cl)Oc1c(Cl)c(Cl)c(Cl)c(Cl)c1O2",
    "melting point": "264 °C"
  },
  {
    "compound_structure_string": "Nc1cc(Cl)c2nonc2c1[N+](=O)[O-]",
    "melting point": "276 to 277 °C"
  },
  {
    "compound_structure_string": "Cc1ccc(-c2snc(Cl)c2C#N)cc1",
    "melting point": "82 to 83 °C"
  },
  {
    "compound_structure_string": "Cn1ccc(-c2cccc(C(=O)O)c2)n1",
    "melting point": "167 to 169 °C"
  },
  {
    "compound_structure_string": "CC(=NOCc1cccc(C(=O)O)c1)c1ccc(Cl)c(Cl)c1",
    "melting point": "175 to 178 °C"
  },
  {
    "compound_structure_string": "N#C/C(=N/Nc1ccccc1[N+](=O)[O-])c1nc(-c2ccccc2)cs1",
    "melting point": "210 °C"
  },
  {
    "compound_structure_string": "CCCCCCCC(=O)Oc1c(I)cc(C#N)cc1I",
    "melting point": "59.5 °C"
  },
  {
    "compound_structure_string": "N#CCCn1cc(C(F)(F)F)ccc1=O",
    "melting point": "89 to 90 °C"
  },
  {
    "compound_structure_string": "O=C(O)c1ccccc1C(=O)Nc1cccc2ccccc12",
    "melting point": "185 °C"
  },
  {
    "compound_structure_string": "CC(C)(C)OC(=O)N[C@@H](Cc1ccc(O)cc1)C(=O)O",
    "melting point": "135 to 140 °C"
  },
  {
    "compound_structure_string": "CN(C)c1ccc(C=O)c(Cl)c1",
    "melting point": "83 to 84 °C"
  },
  {
    "compound_structure_string": "COc1ccc(C=C(C(=O)O)C(=Cc2ccc(OC)c(OC)c2)C(=O)O)cc1OC",
    "melting point": "224 °C"
  },
  {
    "compound_structure_string": "O=c1[nH]c2ccc(Br)cc2c(=O)o1",
    "melting point": "285 to 290 °C"
  },
  {
    "compound_structure_string": "C(=CC=Cc1ccccc1)C=Cc1ccccc1",
    "melting point": "199 to 203 °C"
  },
  {
    "compound_structure_string": "CC(=O)Nc1cc(Cl)ccc1C(=O)O",
    "melting point": "202 to 207 °C"
  }
]

---

[
  {
    "compound": "N#Cc1ccc(OC2CCOCC2)nc1",
    "melting point": "134 to 135 °C"
  },
  {
    "compound": "NNC(=O)CCc1ccc(O)cc1",
    "melting point": "223 to 225 °C"
  },
  {
    "compound": "O=C(NCN(CNC(=O)c1ccccc1)N(CNC(=O)c1ccccc1)CNC(=O)c1ccccc1)c1ccccc1",
    "melting point": "99 to 101 °C"
  },
  {
    "compound": "COC(=O)[C@@H](C)Oc1ccc(O)cc1",
    "melting point": "64 to 67 °C"
  },
  {
    "compound": "CC(=O)Nc1cccnc1",
    "melting point": "131 to 133 °C"
  },
  {
    "compound": "c1ccc(P(c2ccccc2)P(c2ccccc2)c2ccccc2)cc1",
    "melting point": "120 to 122 °C"
  },
  {
    "compound": "CC(C)(C)NCC(O)c1ccccc1Cl (configuration not stated)",
    "melting point": "89 °C"
  }
]

---

The entries below come with measured melting point values attached.

[
  {
    "molecule": "Nc1ccccc1-n1cccn1",
    "melting point": "44 to 46 °C"
  },
  {
    "molecule": "Sc1c(Cl)c(Cl)cc(Cl)c1Cl",
    "melting point": "105 to 107 °C"
  },
  {
    "molecule": "CC(=O)OCc1cn(C(C)=O)c2ccccc12",
    "melting point": "85 to 86 °C"
  },
  {
    "molecule": "NNc1ccc(F)cc1F",
    "melting point": "65 to 67 °C"
  },
  {
    "molecule": "O=C(O)CCC(F)(F)C(F)(F)C(F)(F)C(F)(F)C(F)(F)C(F)(F)F",
    "melting point": "62 to 64 °C"
  },
  {
    "molecule": "O=C(O)c1cnn(-c2ccc([N+](=O)[O-])cc2)c1C(F)(F)F",
    "melting point": "202 to 204 °C"
  },
  {
    "molecule": "CC12C=C(C=O)C(=O)C=C1CCC1C2C(O)CC2(C)C1CCC2(C)O (stereo not given)",
    "melting point": "210 °C"
  },
  {
    "molecule": "CC(C)(C)OC(=O)NCCNc1ccc(C(F)(F)F)cc1N",
    "melting point": "129 to 132 °C"
  },
  {
    "molecule": "Brc1cnc(N2CCNCC2)nc1",
    "melting point": "77 to 79 °C"
  },
  {
    "molecule": "NC1=C(c2ccccc2)C(=O)c2ccccc21",
    "melting point": "270 to 273 °C"
  }
]
